Kindly state abundance fitness for each of the entries shown.
B1: Ankyrin repeat and SOCS box protein 14, residues 532 to 572; numbered along this chain, A6NK59 (parent)
chain: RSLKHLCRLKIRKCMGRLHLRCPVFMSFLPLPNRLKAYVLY

- Variants of: B1
- protocol-summary: abundance fitness (aPCA) (normalised: wild type 0, dead -1); higher = more abundant; growth selection in yeast, the domain comes from the species named
- stated-conditions: Homo sapiens
Give bare numbers.

Known results for variants:
Fill in: abundance fitness of H5S is ___ 0.069

Can you handle F28D next? -0.056

Quick request: abundance fitness for each listed item, please.
1. L3A
2. L6G

1. -0.939
2. -0.297

Quick request: abundance fitness for each listed item, please.
1. F28K
2. F28W
3. L20T
4. R21N
5. H19M

0.221
0.177
0.069
0.096
-0.183

Quick request: abundance fitness for each listed item, please.
1. R17Q
2. L29K
3. P32Q
4. N33L
5. H19V
6. C14H
7. L35D
8. K10Q

1: 0.13; 2: -0.299; 3: -0.587; 4: -0.432; 5: -0.111; 6: -0.373; 7: -1.24; 8: -0.107

Quick request: abundance fitness for each listed item, please.
1. I11V
2. P30L
3. L9H
4. L20I
5. L31V

[-0.17, 0.151, -0.089, -0.308, -0.086]

Provenance of the data: the Human Domainome abundance scans (Beltran et al. 2025)
